Property: pIC50; scope: individual compounds
target: Envelope glycoprotein gp160 (Human immunodeficiency virus type 1 group M subtype B (isolate HXB2)(HIV-1), UniProt P04578); assay: Tested for inhibition of binding of soluble recombinant CD4-gp120 using ELISA assay
// pIC50: -log10(molar conc.)

Task: What value of pIC50 has been reported for the following compound? COC(=O)C(=O)N1CCC[C@@H]1C(=O)N[C@H](Cc1ccccc1)C(=O)OCc1ccccc1
Output: 3.52

---
Task: What value of pIC50 has been reported for the following compound? CCN(CCCl)CC1CC(c2ccccc2)(c2ccccc2)C(=O)O1 (stereo not drawn)
Output: 4.46

---

biological target: Envelope glycoprotein gp160 (Human immunodeficiency virus type 1 group M subtype B (isolate HXB2)(HIV-1), UniProt P04578); assay: Tested for ability to block the CD4-gp120 interaction measured by binding of [125I]sCD4 to gp120
value-kind: IC50 (µM)
The figure you give is taken to be in µM; do not add the unit.

Task: What value of IC50 has been reported for the following molecule? CCN(CCCl)CC1CC(c2ccccc2)(c2ccccc2)C(=O)O1 (stereo unspecified)
Output: 30
